Source: the nanobody polyreactivity screen of Harvey et al. (2022)

# RUN DESCRIPTION: yeast display, Sf9 membrane polyspecificity reagent, FACS + sequencing; frameworks hold sequencing errors
ASSAY READOUT: polyreactivity (PSR sort gate)

{"SEQUENCE": "QVQIVESGGGLVQAGGSLRLSCAASGSTYDTYAMVWYRQAPGKERELVAGITRRGGRTYYADSVKGRFTISRDNAKNTVYLQMISLKPEDTAVYYCAARTYGYYLYDYWGQGSQVTVSS", "polyreactivity (PSR sort gate)": "high polyreactivity"}
{"SEQUENCE": "QVQLVESGGGLVQAGCSLRLSCAASGYTSRRNVMGWYRQAPGNERELVAAINSAGSTTYADSVKGRFTISRVNAKNTVYLQMNSLKPEDTAVYYCAASVYTYNYDLHKSYYLGQGTQVTVSS", "polyreactivity (PSR sort gate)": "high polyreactivity"}
{"SEQUENCE": "QVQLVESGGGIVQAGGSLRLSCAASGRTFKYYAMGWYRQAPGKERELVAAITSTGGSTYYADSVKGRFTISRDNAKNTVYLQMNSLKPEDTAVYYCNRYTQYRDRSDNHWGQGTQVTVSS", "polyreactivity (PSR sort gate)": "high polyreactivity"}
{"SEQUENCE": "QVQLVESGGGLVQAGGSLRLSCAASGFTFRYNDMGWYRQAPGKERELVAVISSDGTTNYADSVKGRFTISRDNAKNTVYLQMNSLKPEDTAVYYCAAWEFRGNAYYVYAFDYWGQGTQVTVSS", "polyreactivity (PSR sort gate)": "low polyreactivity"}
{"SEQUENCE": "QVQLVESGGGLVQSGGSLRLRCAASGRIFGGYAMGWYRQAPGKERELVAAISWRGGSTSYADSVKGRFTISRDNAKNTVYLQMNSLKPEDTAVYYCAKYWGHTYGSWGQGTQVTVSS", "polyreactivity (PSR sort gate)": "high polyreactivity"}

Incoming: Tell me measured polyreactivity (PSR sort gate) for `QVQLVESGGGLVQAGGRHRLSCAASGSIFTVYTIGWYRQAPGKEREFVAAINSRGGTTYYADSVKGRFTISRDNAKNTVYLQMNSLKPEDTAVYYCAAKQRPKSYGPGHYYWGQGTQVTVSS` please.
Outgoing: high polyreactivity

Incoming: Tell me measured polyreactivity (PSR sort gate) for `QVQLVESGGGLVQAGGSLRLSCAASGFTFYSYAMGWYRQAPGKERELVAAISRSGTTTYYADSVKGRFTISRDNAKNTVYLQMNSLKPEDTAVYYCAARTTSSSLTPSLYYWGQGTQVTVSS` please.
Outgoing: high polyreactivity

Incoming: Tell me measured polyreactivity (PSR sort gate) for `QVQLVESGGGLVQAGGSLRLSCAASGRTFYLYTKGWYRQAPGKERELVAAISRGGRTYADSVKGRFTISRDNAKNTVYLQMNSLKPEDTAVDYCNRELTSPRRWHVSRAYDYWGQGTQVTVSS` please.
Outgoing: low polyreactivity

Incoming: Tell me measured polyreactivity (PSR sort gate) for `QVQLVESRGGLVQAGGSLRLSCAASGYTFDWYTMGWYRQAPGKERELVAAISASGVRTYYADSVKGRFTISRDNAKNTVYLQMNSLKPEDTAVYYCYRVYSTSRITQYEFDYWGLGTQVTVSS` please.
Outgoing: low polyreactivity

Incoming: Tell me measured polyreactivity (PSR sort gate) for `QVQLVESGGGLVQAGGSLRLSCAASGRTFKKYTMGWYRQAPGKERELVAVITSGGSTYYADSVKGRFTISRDNAKNTVYLQMNSLKPEDTAVYYCATKASYKGDYWGQGTQVTVSS` please.
Outgoing: high polyreactivity

Incoming: Tell me measured polyreactivity (PSR sort gate) for `QVQLVESGGGLVQAGGRLRLSCAHSGIIFFFYAMGWYRQAPGKERELVAAISDDGVSTDYADSVKGRFTISRDNAKNTVYLQMNSLKPEDTAVYYCAAKTERVYPWFSFGYWGQGTQVTVSS` please.
Outgoing: low polyreactivity
